- Test system: Staphylococcus aureus
- test.summary: Antimicrobial activity against Staphylococcus aureus ATCC 6538 by two-fold serial dilution technique
- Assay type: functional
Parameter MBC: see the listing below.

// below: answered molecules
smiles.data	MBC
CCOC(=O)c1[nH]nc(-c2ccc(Cl)cc2)c1/N=N/c1ccccc1	250 µg/mL
CCOC(=O)c1[nH]nc(-c2ccc(F)cc2)c1/N=N/c1ccccc1	250 µg/mL
O=C1NN=C(c2ccc(Br)cc2)/C(=N/Nc2ccccc2)C1=O	250 µg/mL
O=C1NN=C(c2ccccc2)/C(=N/Nc2ccccc2)C1=O	62.5 µg/mL

# ---- query molecule ----
Find the recorded MBC belonging to CC1(C)S[C@@H]2[C@H](NC(=O)[C@H](N)c3ccccc3)C(=O)N2[C@H]1C(=O)O and report it.
15.6 µg/mL

Data provenance is ChEMBL document CHEMBL3046637.
